Recorded protein stability index for the following variants
B1: LMNB1 (parent)
chain: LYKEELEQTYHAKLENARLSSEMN

Variants of: B1
assay-details: protein stability index of a GFP-peptide fusion (GPS, HEK-293T) (PSI 1-6); higher = more stable;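 note: lentivirally expressed fusions sorted by FACS into six bins by GFP to DsRed ratio, PSI derived from sequencing read proportions per bin multiplied by bin number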
test-context: c terminus: a fixed tail appended
Write the number on its own, no unit after it.

Ask: Annotate the variant E4W with its measured protein stability index.
Reply: 1.55

Ask: Annotate the variant E4M with its measured protein stability index.
Reply: 2.18

Ask: Annotate the variant R18N with its measured protein stability index.
Reply: 3.83

Ask: Annotate the variant N24F with its measured protein stability index.
Reply: 1.88

Ask: Annotate the variant L14C with its measured protein stability index.
Reply: 4.28

Ask: Annotate the variant E22V with its measured protein stability index.
Reply: 2.42

New cases:
Ask: Annotate the variant N16V with its measured protein stability index.
Reply: 2.3

Ask: Annotate the variant K3P with its measured protein stability index.
Reply: 3.09

Ask: Annotate the variant L19F with its measured protein stability index.
Reply: 2.68

Ask: Annotate the variant Y10R with its measured protein stability index.
Reply: 4.48

Ask: Annotate the variant A12V with its measured protein stability index.
Reply: 3.48

Data credit: the supplement of paper PMC10567573
